Values compiled from patent US8871753B2.

study.target: Recombinant Human Anaplastic Lymphoma Kinase (Homo sapiens)
Construct: purchased Invitrogen, Carlsbad, Calif
Sequence (Q9UM73 19-1620): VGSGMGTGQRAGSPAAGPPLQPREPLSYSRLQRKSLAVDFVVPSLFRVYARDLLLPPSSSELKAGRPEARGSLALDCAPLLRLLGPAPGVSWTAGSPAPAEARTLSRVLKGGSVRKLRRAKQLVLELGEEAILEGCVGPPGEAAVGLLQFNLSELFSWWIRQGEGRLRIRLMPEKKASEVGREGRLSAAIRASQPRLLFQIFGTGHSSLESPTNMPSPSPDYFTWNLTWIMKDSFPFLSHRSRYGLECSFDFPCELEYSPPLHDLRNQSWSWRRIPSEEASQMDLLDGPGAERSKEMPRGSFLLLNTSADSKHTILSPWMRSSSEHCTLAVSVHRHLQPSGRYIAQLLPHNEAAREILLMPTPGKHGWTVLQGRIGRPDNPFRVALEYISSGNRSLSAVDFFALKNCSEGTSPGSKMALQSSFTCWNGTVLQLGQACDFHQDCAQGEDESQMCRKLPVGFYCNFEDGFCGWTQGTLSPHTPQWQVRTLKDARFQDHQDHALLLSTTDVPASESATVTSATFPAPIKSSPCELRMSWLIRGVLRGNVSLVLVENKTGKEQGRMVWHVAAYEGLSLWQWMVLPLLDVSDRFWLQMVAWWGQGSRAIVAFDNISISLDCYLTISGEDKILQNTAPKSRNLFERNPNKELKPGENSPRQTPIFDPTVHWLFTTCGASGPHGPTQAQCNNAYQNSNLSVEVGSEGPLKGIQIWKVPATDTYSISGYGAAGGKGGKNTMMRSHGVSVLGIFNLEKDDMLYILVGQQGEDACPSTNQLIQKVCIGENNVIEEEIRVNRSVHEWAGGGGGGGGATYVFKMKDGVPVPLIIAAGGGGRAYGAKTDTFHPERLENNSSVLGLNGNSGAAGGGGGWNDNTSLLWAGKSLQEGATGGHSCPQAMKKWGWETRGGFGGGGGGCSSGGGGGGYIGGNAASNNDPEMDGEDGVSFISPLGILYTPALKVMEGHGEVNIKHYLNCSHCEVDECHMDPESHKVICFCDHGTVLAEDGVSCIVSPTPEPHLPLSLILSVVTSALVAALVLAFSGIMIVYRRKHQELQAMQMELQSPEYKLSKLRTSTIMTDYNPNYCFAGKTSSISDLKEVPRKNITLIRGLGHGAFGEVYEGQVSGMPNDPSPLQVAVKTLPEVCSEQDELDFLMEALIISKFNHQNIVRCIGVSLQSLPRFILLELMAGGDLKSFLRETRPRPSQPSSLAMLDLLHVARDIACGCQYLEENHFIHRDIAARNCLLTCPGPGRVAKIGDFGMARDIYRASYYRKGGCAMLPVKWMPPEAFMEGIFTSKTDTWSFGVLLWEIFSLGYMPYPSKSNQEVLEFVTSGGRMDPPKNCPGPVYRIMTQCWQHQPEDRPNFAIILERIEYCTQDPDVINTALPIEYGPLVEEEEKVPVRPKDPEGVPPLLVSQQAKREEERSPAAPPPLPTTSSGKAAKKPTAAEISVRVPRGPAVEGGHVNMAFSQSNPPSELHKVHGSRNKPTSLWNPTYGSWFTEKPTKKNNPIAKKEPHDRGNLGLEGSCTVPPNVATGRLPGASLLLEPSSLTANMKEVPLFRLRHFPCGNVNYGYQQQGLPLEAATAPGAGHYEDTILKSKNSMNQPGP
test.name: ALK HTRF kinase assay
Type: biochemical
conditions: Table B1; cells without percent sign
Structures can show the parent of a compound that is named as a salt.
readout.label: IC50

Example entries and their recorded answers appear below.
O=S(=O)(Nc1cc2cc(c1)Nc1nc(ncc1Cl)Nc1cccc(c1)CC2)c1ccccc1 [Example B203, trifluoroacetate]: > 10000 nM
Cc1cc(C(=O)Nc2cc3cc(c2)Nc2nc(ncc2Cl)Nc2cccc(c2)CC3)no1 [Example B205, trifluoroacetate]: > 10000 nM
COC(=O)c1cc2cc(c1)Nc1nc(ncc1Cl)Nc1cccc(c1)CC2 [Example B5, trifluoroacetate]: > 1000 nM
Cc1ccccc1NC(=O)Nc1ccc2cc1CCc1cccc(c1)Nc1ncc(Cl)c(n1)N2 [Example B91, trifluoroacetate]: > 1000 nM
Fc1ccc(CN2CCN(Cc3cc4cc(c3)Nc3nc(ncc3Cl)Nc3cccc(c3)CC4)CC2)cc1 [Example B192, tris(trifluoroacetate)]: > 1000 nM

Note to self: IC50 recorded for COc1ccc(CN2CCN(Cc3cc4cc(c3)Nc3nc(ncc3Cl)Nc3cccc(c3)CC4)CC2)cc1 [Example B197, tris(trifluoroacetate)] was > 1000 nM
